The measurements presented in this section are drawn from patent US20250170248A1.

Recorded DC50 for the following compounds
- system-under-test: SMARCA2 (Homo sapiens, UniProt P51531)
- Sequence (P51531 whole entry): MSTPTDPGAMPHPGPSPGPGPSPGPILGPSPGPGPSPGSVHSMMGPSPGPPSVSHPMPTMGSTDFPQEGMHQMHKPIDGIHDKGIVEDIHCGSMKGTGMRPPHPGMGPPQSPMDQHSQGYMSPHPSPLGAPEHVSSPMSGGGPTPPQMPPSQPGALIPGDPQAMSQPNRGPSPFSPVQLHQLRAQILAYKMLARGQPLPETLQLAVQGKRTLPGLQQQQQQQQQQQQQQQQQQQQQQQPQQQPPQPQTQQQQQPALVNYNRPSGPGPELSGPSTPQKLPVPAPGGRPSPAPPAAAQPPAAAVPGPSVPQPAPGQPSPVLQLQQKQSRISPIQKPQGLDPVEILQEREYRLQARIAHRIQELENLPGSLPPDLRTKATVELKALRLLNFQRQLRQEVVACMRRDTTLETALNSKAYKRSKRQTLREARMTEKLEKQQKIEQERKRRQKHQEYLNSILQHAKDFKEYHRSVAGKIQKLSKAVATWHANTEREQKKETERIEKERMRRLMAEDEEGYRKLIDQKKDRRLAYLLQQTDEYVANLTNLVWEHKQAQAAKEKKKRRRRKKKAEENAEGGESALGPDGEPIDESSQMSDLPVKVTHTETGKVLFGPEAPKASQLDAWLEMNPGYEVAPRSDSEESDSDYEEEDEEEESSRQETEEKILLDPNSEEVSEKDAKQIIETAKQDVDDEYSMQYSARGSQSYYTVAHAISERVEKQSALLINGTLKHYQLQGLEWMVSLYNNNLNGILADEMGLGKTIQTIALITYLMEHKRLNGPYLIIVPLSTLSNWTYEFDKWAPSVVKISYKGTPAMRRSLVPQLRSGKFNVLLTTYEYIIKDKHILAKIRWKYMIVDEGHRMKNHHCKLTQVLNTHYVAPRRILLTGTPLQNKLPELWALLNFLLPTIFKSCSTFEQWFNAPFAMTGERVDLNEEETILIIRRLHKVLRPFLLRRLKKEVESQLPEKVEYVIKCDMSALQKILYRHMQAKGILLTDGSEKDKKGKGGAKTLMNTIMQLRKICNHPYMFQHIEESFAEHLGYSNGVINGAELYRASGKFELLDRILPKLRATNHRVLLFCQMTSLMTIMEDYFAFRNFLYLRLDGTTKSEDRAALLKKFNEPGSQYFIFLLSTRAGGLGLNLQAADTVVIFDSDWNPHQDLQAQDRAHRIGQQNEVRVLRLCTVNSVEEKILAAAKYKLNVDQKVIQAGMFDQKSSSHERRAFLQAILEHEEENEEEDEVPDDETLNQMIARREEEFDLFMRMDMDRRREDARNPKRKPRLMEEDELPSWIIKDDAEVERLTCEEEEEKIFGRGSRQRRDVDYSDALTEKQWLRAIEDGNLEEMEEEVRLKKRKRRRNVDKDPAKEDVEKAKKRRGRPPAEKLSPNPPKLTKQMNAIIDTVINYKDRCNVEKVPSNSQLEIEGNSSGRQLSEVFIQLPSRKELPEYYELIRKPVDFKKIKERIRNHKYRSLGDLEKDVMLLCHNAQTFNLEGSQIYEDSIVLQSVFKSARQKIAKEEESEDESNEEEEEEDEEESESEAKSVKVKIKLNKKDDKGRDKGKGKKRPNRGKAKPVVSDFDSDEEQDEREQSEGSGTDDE
- test-name: MSD SMARCA2 degradation in A549 cell line
- Type: cell-based
- condition-parameters: A549 cells, 24 h, read-out: SMARCA2 MSD A549 degradation 24 h: Average external-Abs DC50

// worked examples, DC50 included
Exercise: I have this compound here, Cn1nccc1-c1ccc(CNC(=O)[C@@H]2C[C@@H](O)CN2C(=O)[C@@H](NC(=O)[C@H]2CC[C@H](c3ccc(-c4cnc(N5CCN6c7cc(-c8ccccc8O)nnc7NC[C@H]6C5)nc4)cc3)CC2)C(C)(C)C)cc1 (single isomer, unassigned) , and I need its recorded DC50.
Solution: 10 to 50 nM

Exercise: I have this compound here, C#Cc1ccc(CNC(=O)[C@@H]2C[C@@H](O)CN2C(=O)[C@@H](NC(=O)N2CCC(CN3CCC(N4CCc5[nH]c6nnc(-c7ccccc7O)cc6c5[C@H]4C)CC3)CC2)C(C)(C)C)cc1 , and I need its recorded DC50.
Solution: > 100 nM

Exercise: I have this compound here, Cc1ncsc1-c1ccc(CNC(=O)[C@@H]2C[C@@H](O)CN2C(=O)C(c2cc(OCCCCN3CCC(c4cnc(N5CCN6c7cc(-c8ccccc8O)nnc7NC[C@H]6C5)nc4)CC3)no2)C(C)C)cc1 (stereo partly shown) , and I need its recorded DC50.
Solution: < 10 nM

---
Exercise: I have this compound here, C#Cc1ccc(CNC(=O)[C@@H]2C[C@@H](O)CN2C(=O)[C@@H](NC(=O)[C@H]2CCC3(CC2)C[C@H](N2CCC(c4cnc(N5CCN6c7cc(-c8ccccc8O)nnc7NC[C@H]6C5)nc4)CC2)C3)C(C)(C)C)c(OC)c1 (single isomer, unassigned) [I-125] , and I need its recorded DC50.
Solution: < 10 nM

====

Recorded DC50 for the following compounds
- system-under-test: UniProt:P51531
- test-name: SMARCA2 Western blot degradation in MV4-11 cells
- Type: cell-based
- Design: SMARCA2/SMARCA4 protein degradation selectivity in MV4-11 cells; endogenous in cells; host or cells: MV4-11
- condition-parameters: MV4-11 cells, 24 h; read-out: SMARCA2 MSD MV411 degradation 24 h: Mean external-Abs DC50

Exercise: I have this compound here, C#Cc1ccc(CNC(=O)[C@@H]2C[C@@H](O)CN2C(=O)[C@@H](NC(=O)N2CCO[C@@H](CN3CCC(N4CCC(N5CCN6c7cc(-c8ccccc8O)nnc7NC[C@H]6C5)CC4)CC3)C2)C(C)(C)C)cc1 , and I need its recorded DC50.
Solution: > 100 nM

---
Exercise: I have this compound here, C#Cc1ccc(CNC(=O)[C@@H]2C[C@@H](O)CN2C(=O)[C@@H](NC(=O)N2CC3(CC(N4CCC(c5cnc(N6CCc7[nH]c8nnc(-c9ccccc9O)cc8c7[C@H]6CO)nc5)CC4)C3)C2)C(C)(C)C)c(Cl)c1 , and I need its recorded DC50.
Solution: 1 to 10 nM

Exercise: I have this compound here, Cc1ncsc1-c1ccc(CNC(=O)[C@@H]2C[C@@H](O)CN2C(=O)C(c2cc(OCCCN3CCC(c4cnc(N5CCN6c7cc(-c8ccccc8O)nnc7NCC6C5)nc4)CC3)no2)C(C)C)cc1 (stereo in doubt) , and I need its recorded DC50.
Solution: < 1 nM

Exercise: I have this compound here, Cc1ncsc1-c1ccc(CNC(=O)[C@@H]2C[C@@H](O)CN2C(=O)C(c2cc(OCCN3CCC(N4CCC(c5cnc(N6CCc7[nH]c8nnc(-c9ccccc9O)cc8c7[C@H]6C)nc5)CC4)CC3)no2)C(C)C)cc1 (stereo partly drawn) , and I need its recorded DC50.
Solution: 1 to 10 nM

Exercise: I have this compound here, C#Cc1ccc(CNC(=O)[C@@H]2C[C@@H](O)CN2C(=O)[C@H](NC(=O)N2CC3(CC(N4CCC(c5cnc(N6CCc7[nH]c8nnc(-c9ccccc9O)cc8c7[C@H]6C)nc5)CC4)C3)C2)C(C)(C)CCO)c(Cl)c1 (single isomer, unassigned) , and I need its recorded DC50.
Solution: > 100 nM

Exercise: I have this compound here, C#Cc1cc(F)c(CNC(=O)[C@@H]2C[C@@H](O)CN2C(=O)[C@@H](NC(=O)N2CC3(CC(N4CCC(c5cnc(N6CCc7[nH]c8nnc(-c9ccccc9O)cc8c7[C@H]6C)nc5)CC4)C3)C2)C(C)(C)C)cc1F , and I need its recorded DC50.
Solution: 10 to 100 nM

Exercise: I have this compound here, C#Cc1ccc(CNC(=O)[C@@H]2C[C@@H](O)CN2C(=O)[C@@H](NC(=O)N2CC3(CC(N4CCC(N5CCc6[nH]c7nnc(-c8ccccc8O)cc7c6[C@H]5C)CC4)C3)C2)C(C)(C)C)cc1 , and I need its recorded DC50.
Solution: 1 to 10 nM

Exercise: I have this compound here, C#Cc1ccc([C@@H](CO)NC(=O)[C@@H]2C[C@@H](O)CN2C(=O)[C@@H](NC(=O)N2CC3(CC(N4CCC(c5cnc(N6CCc7[nH]c8nnc(-c9ccccc9O)cc8c7[C@H]6C)nc5)CC4)C3)C2)C(C)(C)C)nc1 , and I need its recorded DC50.
Solution: > 100 nM

Exercise: I have this compound here, C#Cc1ccc(CNC(=O)[C@@H]2C[C@@H](O)CN2C(=O)[C@@H](NC(=O)[C@H]2CC3(C2)C[C@H](N2CCN(C(=O)CN4CCN5c6cc(-c7ccccc7O)nnc6NC[C@H]5C4)CC2)C3)C(C)(C)C)cc1 (stereo partly drawn) [I-240] , and I need its recorded DC50.
Solution: 1 to 10 nM
